system: OVCAR-5 complex spheroids, viability; experiment: Anticancer human tumor OVCAR-5 cell line growth inhibition; settings: second compound 1 µM; first compound 0.1 µM; hits give low values;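 further: spheroids exposed to agents for seven days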
Friendly reminder: viability, T/C below 70% is Condition met, at or above is Condition not met.

# example entries with known answers
* CC1(C)CCC(CN2CCN(c3ccc(C(=O)NS(=O)(=O)c4ccc(NCC5CCOCC5)c([N+](=O)[O-])c4)c(Oc4cnc5[nH]ccc5c4)c3)CC2)=C(c2ccc(Cl)cc2)C1 + NC1CC1c1ccc(-c2cccc(O)c2)cc1 | Condition not met
* CC1COCCN1c1cc(-c2ccnn2C)c2ccnc(-c3ccn[nH]3)c2n1 (stereo not given) + NC1CCC(NC2CC2c2ccccc2)CC1 | Condition met
* Cn1ncnc1C1c2n[nH]c(=O)c3cc(F)cc(c23)NC1c1ccc(F)cc1 (stereo not given) + NC1CC1c1ccc(-c2cccc(O)c2)cc1 | Condition not met
* CC(C)c1c(-c2ccccc2)nc2c(C#N)c[nH]n2c1=O + NC1CCC(NC2CC2c2ccccc2)CC1 | Condition not met

Incoming: Field: below-cutoff. Rule: recorded viability, T/C strictly less than 70%. Subject: CC1COCCN1c1cc(-c2ccnn2C)c2ccnc(-c3ccn[nH]3)c2n1 (stereo not given) + NC1CC1c1ccc(-c2cccc(O)c2)cc1
Outgoing: Condition met

Incoming: Consider next the compound CC1COCCN1c1cc(C2(S(C)(=N)=O)CC2)nc(-c2ccnc3[nH]ccc23)n1 (stereo not given) + NC1CC1c1ccc(-c2cccc(O)c2)cc1 in the same way.
Outgoing: Condition not met

Incoming: Moving on to COc1cc(Nc2ncc3c(n2)-c2ccc(Cl)cc2C(c2c(F)cccc2OC)=NC3)ccc1C(=O)O + NC1CCC(NC2CC2c2ccccc2)CC1
Outgoing: Condition met

Incoming: Also O=C(C=Cn1cnc(-c2cc(C(F)(F)F)cc(C(F)(F)F)c2)n1)NNc1cnccn1 + NC1CC1c1ccc(-c2cccc(O)c2)cc1 ?
Outgoing: Condition met

Incoming: Another compound: CC1(C)CCC(CN2CCN(c3ccc(C(=O)NS(=O)(=O)c4ccc(NCC5CCOCC5)c([N+](=O)[O-])c4)c(Oc4cnc5[nH]ccc5c4)c3)CC2)=C(c2ccc(Cl)cc2)C1 + NC1CCC(NC2CC2c2ccccc2)CC1
Outgoing: Condition not met

Incoming: Next up: Nc1ncn(C2CC(O)C(CO)O2)c(=O)n1 (stereo not given) + NC1CC1c1ccc(-c2cccc(O)c2)cc1
Outgoing: Condition met

Incoming: Also need COc1cc(Nc2ncc3c(n2)-c2ccc(Cl)cc2C(c2c(F)cccc2OC)=NC3)ccc1C(=O)O + NC1CC1c1ccc(-c2cccc(O)c2)cc1 , thanks.
Outgoing: Condition met

Incoming: Can you handle O=C(C=Cn1cnc(-c2cc(C(F)(F)F)cc(C(F)(F)F)c2)n1)NNc1cnccn1 + NC1CCC(NC2CC2c2ccccc2)CC1 next?
Outgoing: Condition met

Incoming: And then O=C(c1cc(Cc2n[nH]c(=O)c3ccccc23)ccc1F)N1CCN(C(=O)C2CC2)CC1 + NC1CC1c1ccc(-c2cccc(O)c2)cc1 , what is it?
Outgoing: Condition not met

Incoming: // repeat for COc1ccc([C@@H](O)c2cc(-c3ncnc4cc(N5CCOCC5)ccc34)c(F)cc2Cl)nn1 + NC1CC1c1ccc(-c2cccc(O)c2)cc1 and report
Outgoing: Condition not met

Each recorded value in this set is attributed to PubChem BioAssay AID1918956.
